- experimental.target: human kisspeptin receptor (Homo sapiens (Human))
- Sequence (Q969F8 whole entry): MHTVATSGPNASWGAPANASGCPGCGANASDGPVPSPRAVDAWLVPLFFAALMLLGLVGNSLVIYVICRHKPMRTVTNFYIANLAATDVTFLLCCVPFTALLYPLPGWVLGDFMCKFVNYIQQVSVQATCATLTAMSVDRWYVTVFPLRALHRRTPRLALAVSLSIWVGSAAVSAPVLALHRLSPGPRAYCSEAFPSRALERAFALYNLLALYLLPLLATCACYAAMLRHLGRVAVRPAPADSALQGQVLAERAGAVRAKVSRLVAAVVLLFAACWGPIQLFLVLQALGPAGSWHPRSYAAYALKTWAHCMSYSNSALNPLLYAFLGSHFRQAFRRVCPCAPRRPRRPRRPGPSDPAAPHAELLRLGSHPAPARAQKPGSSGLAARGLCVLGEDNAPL
- assay.procedure: Human KISS1R binding assay (membrane competition binding)
- cond: 90 min at room temperature; competition with 0.2 nM [125I]-metastin (45-54); Flp-In T-Rex 293 kisspeptin membranes; metal complexes nonradioactive Ga, In, Lu; read-out: hKiSSR Binding Ki (90 min)
pKi: −log10 of the molar value. Square brackets hold non-standard residues; d marks the D form. Peptide text beside a SMILES is read from it. * marks the point of attachment. DOTA = O=C(O)CN1CCN(CC(=O)O)CCN(CC(=O)*)CCN(CC(=O)O)CC1; Gly(N-(3-F-4-Me-benzyl)) = Cc1ccc(CNCC(=O)*)cc1F; d2Nal = N[C@H](Cc1ccc2ccccc2c1)C(=O)O; N(octyl)Gly = CCCCCCCCNCC(=O)O; Octanoyl = CCCCCCCC(=O)*; Api = NC1(C(=O)O)CCNCC1; Ahx = NCCCCCC(=O)O; azaGly = NNC(=O)O
recorded.endpoint: pKi

compound	pKi
CCCCCCCCNCC(=O)N1CCC(NC(=O)[C@H](CC(C)C)NC(=O)NNC(=O)[C@H](Cc2ccccc2)NC(=O)[C@@H](NC(=O)[C@H](CC(N)=O)NC(=O)[C@@H](Cc2ccc3ccccc3c2)NC(=O)[C@@H](Cc2ccc(O)cc2)NC(=O)CCCCCNC(=O)CN2CCN(CC(=O)O)CCN(CC(=O)O)CCN(CC(=O)O)CC2)[C@@H](C)O)(C(=O)N[C@H](Cc2c[nH]c3ccccc23)C(N)=O)CC1 [Compound 374] ({DOTA-Ahx}-[dY][d2Nal]NTF[azaGly]L[Api](N(octyl)Gly)[dW]-NH2)	> 8.00

Query block: Indicate the recorded pKi value for this compound: CCCCCCCC(=O)N[C@H](Cc1ccc(O)cc1)C(=O)N[C@@H](CCCCNC(=O)CN1CCN(CC(=O)O)CCN(CC(=O)O)CCN(CC(=O)O)CC1)C(=O)N[C@@H](CC(N)=O)C(=O)N[C@H](C(=O)N[C@@H](Cc1ccccc1)C(=O)NNC(=O)N[C@@H](CC(C)C)C(=O)NC1(C(=O)N[C@@H](Cc2c[nH]c3ccccc23)C(N)=O)CCN(C(=O)CNCc2ccc(C)c(F)c2)CC1)[C@@H](C)O [Compound 181] (Octanoyl-[dY]K(DOTA)NTF[azaGly]L[Api](Gly(N-(3-F-4-Me-benzyl)))W-NH2)
Result block: > 8.00
